Cited source: patent USRE37950E1

# test.protocol: Concentration of SaCl in crevicular fluid from periodontal pocket of a greyhound dog (Periostrips, Periotron, liquid chromatograph)
# test.context: other: inserted into the periodontal pocket
assay.metric: concentration at 14 days (µg/mL)
Answers are plain numbers, in µg/mL.

The molecule listed as C[n+]1cc2c3c(ccc2c2ccc4cc5c(cc4c21)OCO5)OCO3 [SaCl, Sanguinarine chloride] has a reported concentration at 14 days of 70.5

---

# test.protocol: Concentration of SaCl in crevicular fluid from periodontal pocket of a greyhound dog (Periostrips, Periotron, liquid chromatograph)
# test.context: other: inserted into the periodontal pocket
assay.metric: concentration at 3 days (µg/mL)
Give bare numbers, in µg/mL.

Input C[n+]1cc2c3c(ccc2c2ccc4cc5c(cc4c21)OCO5)OCO3 [SaCl, Sanguinarine chloride] . Output concentration at 3 days: 63.2
